Entries and their measured self-splicing fitness (ln) follow.
# assay protocol: self-splicing fitness, log relative to wild type (ln ratio); higher = more splicing; Tetrahymena group I intron in knt gene, E. coli kanamycin selection, DiMSum; sequences stand for … in CUCUCU…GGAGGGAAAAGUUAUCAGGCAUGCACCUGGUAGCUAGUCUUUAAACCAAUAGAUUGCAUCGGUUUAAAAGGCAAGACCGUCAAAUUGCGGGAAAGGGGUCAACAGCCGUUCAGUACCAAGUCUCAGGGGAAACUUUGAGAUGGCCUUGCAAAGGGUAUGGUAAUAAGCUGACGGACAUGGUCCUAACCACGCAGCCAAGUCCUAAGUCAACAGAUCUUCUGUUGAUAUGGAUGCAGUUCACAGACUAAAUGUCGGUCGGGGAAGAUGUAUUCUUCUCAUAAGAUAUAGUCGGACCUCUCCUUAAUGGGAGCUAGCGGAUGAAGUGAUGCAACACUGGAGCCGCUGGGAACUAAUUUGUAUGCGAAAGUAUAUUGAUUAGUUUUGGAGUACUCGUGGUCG;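 note: selection with 25 µg/mL kanamycin versus none on LB agar overnight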
# details: 30 °C
experimental endpoint: self-splicing fitness (ln)

In [3]: df
Out[3]:
                residues  readout_number
 0  CCUGAGCAAUAUUACGCUGA           -2.59
 1  AAUAAGCAAUAUUACGUCGG           -1.91
 2  CGUCAGCAAUAUUACGCGUA           -1.93
 3  AGUUAGCAAUAUUACGUAUG           -1.57
 4  GCGCAGCAAUAUUACGAAAU          -0.982
 5  CAAAAGCAAUAUUACGUGUG           -2.48
 6  AUGAAGCAAUAUUACGGGCU           -1.52
 7  CUUUAGCAAUAUUACGCCGG           -1.74
 8  UCUAAGCAAUAUUACGUCUU           -4.03
 9  UACAAGCAAUAUUACGAGUU           -2.14
10  CAAUAGCAAUAUUACGGCGU           -2.07
11  GGUAAGCAAUAUUACGUCCG          -0.859
12  AAGAAGCAAUAUUACGACGU          -0.168
13  UGGCAGCAAUAUUACGUAUA           -1.29
14  CCAAAGCAAUAUUACGGAGA           -4.23
15  CUGUAGCAAUAUUACGCGGC           -2.51
